These entries and their values trace back to paper PMC9482650.

# tested-on: T1, MPDZ_10, O75970
# T1 sequence (O75970 1624-1722, limits assumed, looked up): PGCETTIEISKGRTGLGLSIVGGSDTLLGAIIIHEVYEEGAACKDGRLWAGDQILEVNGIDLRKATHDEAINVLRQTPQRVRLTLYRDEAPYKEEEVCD
# protocol-notes: holdup assay
# Design: key: below the threshold = too weak to quantify, mostly under pKd 3.1 to 4
# test-context: plain residues with an end cap or a label only (N-terminal biotin on a linker: ado-ado)
outcome-measure: pKd

1. ATKDKKITTV [EXOC4, Q96A65]; 3.95
2. QKASRNESTF [POLR1D, P0DPB6]; below the threshold
3. IGHEDLETAV [DGKI, O75912]; below the threshold
4. QKNKDREYYV [NRXN3, Q9HDB5]; below the threshold
5. RSPVATATSC [DUSP5, Q16690]; below the threshold

Query: Any idea what pKd was measured for QLKSGRDSTV [TMEM178A, Q8NBL3] ?
Reply: 3.63

Query: Need pKd of RGKNRRQSIF [CDK18, Q07002] , thanks.
Reply: 3.48

Query: What measured pKd goes with MQILSKPEFI [NPSR1, Q6W5P4] ?
Reply: below the threshold

Query: What does the data say about its pKd? Entry: STYCDYTIEI [FAM71C, Q8NEG0]
Reply: below the threshold

Query: Can you look up the measured pKd of SRPHTNETSL [MCC, P23508] for me?
Reply: below the threshold
